Recorded pIC50, one value per entry.
- System: Plasmodium falciparum
- Test Method Notes: Antimalarial activity against Plasmodium falciparum IMT Vol harboring Ppcrt M74I, N75E, K76T, A220S, Q271E, N326S mutant gene, Pmdr1 N86Y mutant gene and Pfmrp H191Y and S437A mutant gene assessed as incorporation of [3]H hypoxanthine after 48 hrs by scintillation counter
- Assay type: functional, organism-based
pIC50: −log10 of the molar value.

Chem Smiles	pIC50
C[C@H]1[C@@H](O)O[C@@H]2O[C@@]3(C)CC[C@H]4[C@H](C)CC[C@@H]1[C@@]24OO3	8.92
Clc1ccc2c(N3CCN(CCCN4CCN(c5ccnc6cc(Cl)ccc56)CC4)CC3)ccnc2c1	7.43

###

- Test system: Plasmodium falciparum
- Test Method Notes: Antimalarial activity against Plasmodium falciparum D6 assessed as inhibition of [3H] incorporation after 48 hrs by scintillation counter
- Assay type: functional, organism-based
The following molecules are shown together with reported IC50 values.
Metric Name: IC50 (nM)

Chem Smiles	Unit Abbreviation	Numeric Result
CCNCc1cc(Nc2ccnc3cc(Cl)ccc23)ccc1O	nM	23
C[C@H]1[C@@H](O)O[C@@H]2O[C@@]3(C)CC[C@H]4[C@H](C)CC[C@@H]1[C@@]24OO3	nM	1.4
Clc1ccc2c(N3CCN(CCCN4CCN(c5ccnc6cc(Cl)ccc56)CC4)CC3)ccnc2c1	nM	58
C=C[C@H]1CN2CC[C@H]1C[C@H]2[C@H](O)c1ccnc2ccc(OC)cc12	nM	48

###

- System: Plasmodium falciparum
- Test Method Notes: Antimalarial activity against Plasmodium falciparum IMT 10354 assessed as inhibition of [3H] incorporation after 48 hrs by scintillation counter
- Assay type: functional, organism-based
Metric Name: IC50 (nM)

Chem Smiles	Numeric Result
Clc1ccc2c(N3CCN(CCCN4CCN(c5ccnc6cc(Cl)ccc56)CC4)CC3)ccnc2c1	29
CCNCc1cc(Nc2ccnc3cc(Cl)ccc23)ccc1O	20
C[C@H]1c2cccc(O)c2C(=O)C2=C(O)[C@]3(O)C(=O)C(C(N)=O)=C(O)[C@@H](N(C)C)[C@@H]3[C@@H](O)[C@@H]21	4600
C=C[C@H]1CN2CC[C@H]1C[C@H]2[C@H](O)c1ccnc2ccc(OC)cc12	118
C[C@H]1[C@@H](O)O[C@@H]2O[C@@]3(C)CC[C@H]4[C@H](C)CC[C@@H]1[C@@]24OO3	0.4

###

Form field: IC50 (one value per entry).
- Tested on: Plasmodium falciparum
- Test Method Notes: Antimalarial activity against Plasmodium falciparum IMT K14 harboring Ppcrt M74I, N75E, K76T, A220S, Q271E, N326S mutant gene, Pmdr1 Y184F, S1034C, N1042D, D1246Y mutant gene and Pfmrp H191Y and S437A mutant gene assessed as incorporation of [3]H hypoxanthine after 48 hrs by scintillation counter
- Format: functional, organism-based
- Condition Summary: IMT K14, 48 h

Chem Smiles	Unit Abbreviation	IC50
Clc1ccc2c(N3CCN(CCCN4CCN(c5ccnc6cc(Cl)ccc56)CC4)CC3)ccnc2c1	nM	61
C[C@H]1[C@@H](O)O[C@@H]2O[C@@]3(C)CC[C@H]4[C@H](C)CC[C@@H]1[C@@]24OO3	nM	2.1
